target: the molecule itself; assay: CG-MALS; composition gradient multi-angle light scattering, 20 mM HEPES pH 6.8, 150 mM NaCl, 1 mM DTT; isodesmic self-association model, each addition of a monomer
Metric name: pKd
// returns pKd (minus log10 of molar concentration), number only

Lab book: pKd of TDP-43 N-terminal domain (NTD), wild-type, residues 1-80 (domain or fragment, three additional N-terminal residues left by the cloning strategy and TEV cleavage; TDP-43 N-terminal domain, residues 1-80 (codon of N81 changed to a stop codon); 15N-labelled or natural abundance, depending on the NMR experiment; also called TDP-43 NTD; NTD WT; source: E. coli BL21 Star DE3, purified (Histrap, TEV cleavage, SEC); not shown: Thioredoxin, N-terminal, cleaved; His6, N-terminal, …) GHMMSEYIRVTEDENDEPIEIPSEDDGTVLLSTVTAQFPGACGLRYRNPVSQCMRGVRLVEGILHAPDAGWGNLVYVVNYPKD noted as 4.02
